Each recorded value in this set is attributed to ChEMBL document CHEMBL1130196.

# system_tested: 5-hydroxytryptamine receptor 1D (Homo sapiens, UniProt P28221)
# Sequence (P28221 whole entry): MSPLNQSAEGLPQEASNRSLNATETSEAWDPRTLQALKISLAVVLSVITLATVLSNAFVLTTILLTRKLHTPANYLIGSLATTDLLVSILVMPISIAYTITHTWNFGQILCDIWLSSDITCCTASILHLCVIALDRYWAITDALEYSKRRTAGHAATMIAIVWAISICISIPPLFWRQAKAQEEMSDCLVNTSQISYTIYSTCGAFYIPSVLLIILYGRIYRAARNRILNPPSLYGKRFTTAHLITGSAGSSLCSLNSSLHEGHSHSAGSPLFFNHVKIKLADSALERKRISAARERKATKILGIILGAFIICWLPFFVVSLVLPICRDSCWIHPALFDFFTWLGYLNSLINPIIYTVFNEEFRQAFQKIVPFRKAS
# protocol: Displacement of [3H]5-HT from human 5-hydroxytryptamine 1D receptor expressed in CHO cells
# Format: cell-based
pIC50: −log10 of the molar value.
property_measured: pIC50

Observe how each entry below is paired with its result.
>>> value("Fc1ccc(CCN2CCN(CCCc3c[nH]c4ccc(-n5cnnc5)cc34)CC2)cc1")
9.10
>>> value("c1ccc(CCN2CCN(CCCc3c[nH]c4ccc(-n5cnnc5)cc34)CC2)cc1")
8.85

(a) Fc1ccc(CCN2CCN(CCCc3c[nH]c4ccc(-n5cnnc5)cc34)CC2)cc1F
(b) CC(=O)Nc1cccc(CCN2CCN(CCCc3c[nH]c4ccc(-n5cnnc5)cc34)CC2)c1
(c) Fc1ccccc1CCN1CCN(CCCc2c[nH]c3ccc(-n4cnnc4)cc23)CC1
q: Let's sort these by pIC50, smallest first. Go ahead? Give your ranking as a list of the labels in the requested order.
a: b, a, c
